Test system: Male Dunkin Hartley guinea pigs
Assay: Citric acid only cough model
Type: in vivo, guinea pig
Conditions: Cavia porcellus; 30 mg/kg; read-out: Cough inhibition rate Vs Baseline (%)
From the text: Male Dunkin Hartley guinea pigs (300-350 g) were placed in an animal atomization box, and then the door of the atomization box was closed while the ultrasonic atomizer (Guangdong Yuehua) was turned on. […] During the 10-min observation, coughs of the animals were counted manually, and the number of coughs were judged according to cough postures of the guinea pigs, such as abdominal twitching, mouth opening, and head inclining downward abruptly. […]
quantityName: inhibition in vivo at 30 mg/kg (%)
Kindly provide the numeric value in % only, without the unit symbol.

Query block: Param request: inhibition in vivo at 30 mg/kg | system Male Dunkin Hartley guinea pigs | item CNC(=O)c1cc(F)c(-c2oc3cc(C)ccc3c2C[C@H]2CN(C(=O)OC)CCO2)c(F)c1 [Compound 53]
Result block: 51.7

Query block: Param request: inhibition in vivo at 30 mg/kg | system Male Dunkin Hartley guinea pigs | item COC(=O)N1CCO[C@@H](Cc2c(-c3c(F)cc(NC(C)=O)cc3F)nc3cc(C)ccn23)C1 [Compound 2]
Result block: 38.7

Query block: Param request: inhibition in vivo at 30 mg/kg | system Male Dunkin Hartley guinea pigs | item CCC(=O)c1ccn(-c2cc(F)c(-c3nc4cc(C)ccn4c3C[C@H]3CN(C(=O)OC)CCO3)c(F)c2)n1 [Compound 164]
Result block: 67.2

Query block: Param request: inhibition in vivo at 30 mg/kg | system Male Dunkin Hartley guinea pigs | item CC(=O)N1CCO[C@@H](Cc2c(-c3c(F)cc(-c4nnc[nH]4)cc3F)nc3cc(C)ccn23)C1 [Compound 165]
Result block: 54.5

###

test: In vitro metabolic stability, rat liver microsome; type: in vitro ADME; details: liver microsomes, 1 mg/mL liver microsome protein, 37° C., NA = essentially not metabolized, read-out: T1/2 in rat liver microsome
Give log10 of half-life for every item shown.
Reminder: these figures are log10 of reported half-life, in min before transformation.

Query block: Look up and report measured log10 of half-life for this entry: COC(=O)N1CCO[C@@H](Cc2c(-c3c(F)cc(-c4cccs4)cc3F)nc3cc(C)ccn23)C1
Result block: 0.89

Query block: Look up and report measured log10 of half-life for this entry: COC(=O)N1CCO[C@@H](Cc2c(-c3c(F)cc(N4CC=CC4=O)cc3F)nc3cc(C)ccn23)C1
Result block: 1.55

Query block: Look up and report measured log10 of half-life for this entry: COC(=O)N1CCO[C@@H](Cc2c(-c3c(F)cc(-c4ncc[nH]4)cc3F)nc3cc(C)ccn23)C1
Result block: 1.29

Query block: Look up and report measured log10 of half-life for this entry: COC(=O)N1CCO[C@@H](Cc2c(-c3c(F)cc(-c4ccc[nH]4)cc3F)nc3cc(C)ccn23)C1
Result block: 0.69

Query block: Look up and report measured log10 of half-life for this entry: CNC(=O)c1cc(F)c(-c2nc3cc(C)ccn3c2C[C@H]2CN(C(=O)OC)CCO2)c(F)c1 [Positive compound 1, reference compound]
Result block: 1.73

Query block: Look up and report measured log10 of half-life for this entry: COC(=O)N1CCO[C@@H](Cc2c(-c3ccc(S(N)(=O)=O)cc3Cl)nc3cc(C)ccn23)C1
Result block: 0.56

Query block: Look up and report measured log10 of half-life for this entry: COC(=O)N1CCO[C@@H](Cc2c(-c3c(F)cc(-c4ccccn4)cc3F)nc3cc(C)ccn23)C1
Result block: 1.29

###

Give IC50 for every item shown.
biological target: hP2X3 (human purinergic P2X receptor subtype 3) (Homo sapiens (Human), UniProt P56373); assay: FLIPR calcium assay, hP2X3 expressed in HEK293 cells; type: cell-based; conditions: read-out: P2X3 IC50
Sequence (P56373 whole entry): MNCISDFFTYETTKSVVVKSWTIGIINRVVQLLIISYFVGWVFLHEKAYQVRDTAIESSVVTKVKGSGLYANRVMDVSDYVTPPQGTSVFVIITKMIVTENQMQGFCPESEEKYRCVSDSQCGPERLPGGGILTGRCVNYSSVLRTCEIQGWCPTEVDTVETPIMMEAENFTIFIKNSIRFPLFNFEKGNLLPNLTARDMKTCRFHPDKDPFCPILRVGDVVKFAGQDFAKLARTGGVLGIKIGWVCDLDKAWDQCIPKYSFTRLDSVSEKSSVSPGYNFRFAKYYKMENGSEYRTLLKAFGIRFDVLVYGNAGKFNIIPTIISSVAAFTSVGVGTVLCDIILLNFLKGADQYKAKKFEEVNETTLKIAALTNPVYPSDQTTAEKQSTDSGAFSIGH

Query block: Look up and report measured IC50 for this entry: COC(=O)N1CCO[C@@H](Cc2c(-c3c(F)cc(S(N)(=O)=O)cc3Cl)nc3cc(Cl)ccn23)C1
Result block: 0.0004 µM

Query block: Look up and report measured IC50 for this entry: COC(=O)N1CCO[C@@H](Cc2c(-c3c(F)cc(NC4CC(=O)C4)cc3F)nc3cc(C)ccn23)C1
Result block: 0.01 to 0.05 µM

Query block: Look up and report measured IC50 for this entry: COC(=O)N1CCO[C@@H](Cc2c(-c3c(F)cc(-n4ccc(C#N)n4)cc3F)nc3cc(C)ccn23)C1
Result block: < 0.01 µM

Query block: Look up and report measured IC50 for this entry: COC(=O)N1CCO[C@@H](Cc2c(-c3c(F)cc(-c4nc(C5(O)CC5)c[nH]4)cc3F)nc3cc(C)ccn23)C1
Result block: 0.01 to 0.05 µM

Query block: Look up and report measured IC50 for this entry: COC(=O)N1CCO[C@@H](Cc2c(-c3c(F)cc(-n4ccnc4)cc3F)nc3cc(F)ccn23)C1
Result block: < 0.01 µM

Query block: Look up and report measured IC50 for this entry: COC(=O)N1CCO[C@@H](Cc2c(-c3c(F)cc(-n4cnc(C#N)c4)cc3F)nc3cc(C)ccn23)C1
Result block: 0.01 to 0.05 µM

Query block: Look up and report measured IC50 for this entry: COC(=O)N1CCO[C@@H](Cc2c(-c3c(F)cc(S(N)(=O)=O)cc3F)nc3cc(Cl)c(F)cn23)C1
Result block: 0.0055 µM

Query block: Look up and report measured IC50 for this entry: COC(=O)N1CCO[C@@H](Cc2c(-c3c(F)cc(-c4ncc[nH]4)cc3F)nc3cc(C)ccn23)C1
Result block: < 0.01 µM

Query block: Look up and report measured IC50 for this entry: CNC(=O)C1(c2cc(F)c(-c3nc4cc(C)ccn4c3C[C@H]3CN(C(=O)OC)CCO3)c(F)c2)CC1
Result block: 0.05 to 0.2 µM

Query block: Look up and report measured IC50 for this entry: COC(=O)N1CCO[C@@H](Cc2c(-c3c(F)cc(N)cc3F)nc3cc(Cl)ccn23)C1
Result block: 0.01 to 0.05 µM

Query block: Look up and report measured IC50 for this entry: COC(=O)N1CCO[C@@H](Cc2c(-c3c(F)cc(-n4ccc(S(N)(=O)=O)c4)cc3F)nc3cc(C)ccn23)C1
Result block: 0.01 to 0.05 µM

Query block: Look up and report measured IC50 for this entry: COC(=O)N1CCO[C@@H](Cc2c(-c3c(F)cc(NC(C)=O)cc3F)nc3cc(C(F)F)ccn23)C1
Result block: < 0.01 µM

Query block: Look up and report measured IC50 for this entry: CC(=O)N1CCO[C@@H](Cc2c(-c3c(F)cc(-n4ccnc4)cc3F)nc3cc(Cl)ccn23)C1
Result block: < 0.01 µM

Query block: Look up and report measured IC50 for this entry: COC(=O)Nc1cc(F)c(-c2nc3cc(C)ccn3c2C[C@H]2CN(C(=O)OC)CCO2)c(F)c1
Result block: 0.01 to 0.05 µM

Query block: Look up and report measured IC50 for this entry: CNC(=O)c1cc(F)c(-c2nc3cc(C)ncn3c2C[C@H]2CN(C(=O)OC)CCO2)c(F)c1
Result block: < 0.01 µM

###

target: hP2X3 (human purinergic P2X receptor subtype 3) (Homo sapiens (Human), UniProt P56373); experiment: FLIPR calcium assay, hP2X3 expressed in HEK293 cells; format: cell-based; details: read-out: P2X3 IC50
Give IC50 for every item shown.

Query block: Look up and report measured IC50 for this entry: COC(=O)N1CCO[C@@H](Cc2c(-c3c(F)cc(-n4ccnn4)cc3F)nc3cc(C)ccn23)C1 [Compound 141]
Result block: 10 to 50 nM

Query block: Look up and report measured IC50 for this entry: CNC(=O)c1cc(F)c(-c2nn3cc(C)ccc3c2C[C@H]2CN(C(=O)OC)CCO2)c(F)c1 [Compound 57]
Result block: < 10 nM

Query block: Look up and report measured IC50 for this entry: COC(=O)N1CCO[C@@H](Cc2c(-c3c(F)cc(-c4ccon4)cc3F)nc3cc(C)ccn23)C1 [Compound 16]
Result block: 10 to 50 nM

Query block: Look up and report measured IC50 for this entry: COC(=O)N1CCO[C@@H](Cc2c(-c3c(F)cc(-n4cnc(C(C)(C)O)c4)cc3F)nc3cc(C)ccn23)C1 [Compound 117]
Result block: 10 to 50 nM

Query block: Look up and report measured IC50 for this entry: CCC(=O)N1CCO[C@@H](Cc2c(-c3c(F)cc(NC(C)=O)cc3F)nc3cc(CF)ccn23)C1 [Compound 155]
Result block: < 10 nM

Query block: Look up and report measured IC50 for this entry: CNC(=O)c1cc(F)c(-c2nc3cc(C)cnc3n2C[C@H]2CN(C(=O)OC)CCO2)c(F)c1 [Compound 94]
Result block: 50 to 200 nM

Query block: Look up and report measured IC50 for this entry: COC(=O)N1CCO[C@@H](Cc2c(-c3c(F)cc(-c4nc(S(N)(=O)=O)c[nH]4)cc3F)nc3cc(C)ccn23)C1 [Compound 105]
Result block: < 10 nM

Query block: Look up and report measured IC50 for this entry: CNC(=O)c1cc(F)c(-c2nc3cc(C)ccn3c2CN2CCNCC2=O)c(F)c1 [Compound 48]
Result block: 50 to 200 nM

Query block: Look up and report measured IC50 for this entry: COC(=O)N1CCC[C@@H](Cc2c(-c3c(F)cc(S(N)(=O)=O)cc3F)nc3cc(C)ccn23)C1 [Compound 187]
Result block: 50 nM

Query block: Look up and report measured IC50 for this entry: COC(=O)N1CCO[C@@H](Cc2c(-c3c(F)cc(-n4ccc(C5(O)CC5)n4)cc3F)nc3cc(C)ccn23)C1 [Compound 131]
Result block: 10 to 50 nM

Query block: Look up and report measured IC50 for this entry: COC(=O)N1CCO[C@@H](Cc2c(-c3c(F)cc(-n4ccc(C5(C(=O)O)CC5)c4)cc3F)nc3cc(C)ccn23)C1 [Compound 136]
Result block: 50 to 200 nM

Query block: Look up and report measured IC50 for this entry: COC(=O)N1CCO[C@@H](Cc2c(-c3ncc(S(N)(=O)=O)nc3Cl)nc3cc(C)ccn23)C1 [Compound 191]
Result block: < 10 nM

Query block: Look up and report measured IC50 for this entry: COC(=O)N1CCO[C@@H](Cc2c(-c3c(F)cc(-n4ccc(C(C)(C)O)n4)cc3F)nc3cc(C)ccn23)C1 [Compound 126]
Result block: 10 to 50 nM

Query block: Look up and report measured IC50 for this entry: COC(=O)N1CCO[C@@H](Cc2c(-c3c(F)cc(-c4cc[nH]n4)cc3F)nc3cc(C)ccn23)C1 [Compound 15]
Result block: < 10 nM

Query block: Look up and report measured IC50 for this entry: CNC(=O)c1cc(F)c(-c2oc3cc(C)ncc3c2C[C@H]2CN(C(=O)OC)CCO2)c(F)c1 [Compound 55]
Result block: < 10 nM

Query block: Look up and report measured IC50 for this entry: COC(=O)N1CCO[C@@H](Cc2c(-c3c(F)cc(-c4nc(Cl)c[nH]4)cc3F)nc3cc(C)ccn23)C1 [Compound 34]
Result block: < 10 nM

Query block: Look up and report measured IC50 for this entry: CCC(=O)N1CCO[C@@H](Cc2c(-c3c(F)cc(NC(C)=O)cc3F)nc3cc(Cl)ccn23)C1 [Compound 154]
Result block: < 10 nM

Query block: Look up and report measured IC50 for this entry: COC(=O)N1CCO[C@@H](Cc2c(-c3c(F)cc(NC(=O)CC(C)C(N)=O)cc3F)nc3cc(C)ccn23)C1 (some centres unmarked) [Compound 170]
Result block: 50 to 200 nM

Query block: Look up and report measured IC50 for this entry: COC(=O)N1CCO[C@@H](Cc2c(-c3c(F)cc(-n4cnnc4)cc3F)nc3cc(C)ccn23)C1 [Compound 143]
Result block: < 10 nM

Query block: Look up and report measured IC50 for this entry: CNC(=O)Cc1cc(F)c(-c2nc3cc(C)ccn3c2C[C@H]2CN(C(=O)OC)CCO2)c(F)c1 [Compound 64]
Result block: 50 to 200 nM

Query block: Look up and report measured IC50 for this entry: COC(=O)N1CCO[C@@H](Cc2c(-c3c(F)cc(NC(C)=O)cc3F)nc3cc(F)ccn23)C1 [Compound 148]
Result block: < 10 nM

Query block: Look up and report measured IC50 for this entry: COC(=O)N1CCO[C@@H](Cc2c(-c3c(F)cc(C4(C(N)=O)CC4)cc3F)nc3cc(C)ccn23)C1 [Compound 65]
Result block: 50 to 200 nM

Query block: Look up and report measured IC50 for this entry: COC(=O)N1CCO[C@@H](Cc2c(-c3c(F)cc(N4CCCC4=O)cc3F)nc3cc(C)ccn23)C1 [Compound 101]
Result block: 10 to 50 nM

Query block: Look up and report measured IC50 for this entry: COC(=O)N1CCO[C@@H](Cc2c(-c3c(F)cc(-c4nc(C(=O)O)co4)cc3F)nc3cc(C)ccn23)C1 [Compound 114]
Result block: 10 to 50 nM

Query block: Look up and report measured IC50 for this entry: COC(=O)c1cc(F)c(-c2nc3cc(C)ccn3c2C[C@H]2CN(C(=O)OC)CCO2)c(F)c1 [Compound 49]
Result block: < 10 nM

Query block: Look up and report measured IC50 for this entry: COC(=O)N1CCO[C@@H](Cc2c(-c3c(F)cc(-n4cc(N)cn4)cc3F)nc3cc(C)ccn23)C1 [Compound 127]
Result block: < 10 nM

Query block: Look up and report measured IC50 for this entry: COC(=O)N1CCO[C@@H](Cc2c(-c3c(F)cc(NC(=O)c4ccncc4)cc3F)nc3cc(C)ccn23)C1 [Compound 86]
Result block: 10 to 50 nM

Query block: Look up and report measured IC50 for this entry: COC(=O)N1CCO[C@@H](Cc2c(-c3c(F)cc(NC(=O)C#CC(=O)O)cc3F)nc3cc(C)ccn23)C1 [Compound 88]
Result block: 10 to 50 nM

Query block: Look up and report measured IC50 for this entry: CC(=O)N1CCO[C@@H](Cc2c(-c3c(F)cc(S(N)(=O)=O)cc3F)nc3cc(C)ccn23)C1 [Compound 173]
Result block: 1.8 nM
